I'd be grateful if you could share measured log10 koff for these entries.
- Target or system: T1, recombinant human IL-23 (human, UniProt Q9NPF7 20-189; P29460 23-328)
- T1 construct: also called hIL-23
- T1 sequence 1: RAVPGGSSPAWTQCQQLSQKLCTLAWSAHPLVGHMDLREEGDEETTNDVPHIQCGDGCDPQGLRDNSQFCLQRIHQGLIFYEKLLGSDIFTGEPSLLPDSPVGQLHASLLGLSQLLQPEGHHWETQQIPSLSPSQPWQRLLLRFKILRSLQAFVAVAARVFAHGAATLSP
- T1 sequence 2: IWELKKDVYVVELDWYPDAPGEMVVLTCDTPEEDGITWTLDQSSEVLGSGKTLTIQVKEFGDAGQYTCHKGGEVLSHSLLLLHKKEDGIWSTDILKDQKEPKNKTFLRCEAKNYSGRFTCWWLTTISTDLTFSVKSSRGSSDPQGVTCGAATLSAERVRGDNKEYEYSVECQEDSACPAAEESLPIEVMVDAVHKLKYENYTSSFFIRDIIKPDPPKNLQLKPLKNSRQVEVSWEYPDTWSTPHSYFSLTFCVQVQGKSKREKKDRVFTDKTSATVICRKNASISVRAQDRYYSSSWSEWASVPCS
- Protocol text: SPR (Biacore T100), tissue culture supernatant antibody captured on anti-human IgG, IL-23 analyte
Each number you see is log10 of koff, and the unit inside the log is s⁻¹.

Below, 4 binders whose answers are already recorded.
Noted for A11M4 (antibody, V domains shown) VH: QVQLVQSGAEVKKPGSSVKVSCKASGYTFASYGITWVRQAPGQGLEWMGENYPRSGNTYYNEKFKGRVTITADKSTSTAYMELSSLRSEDTAMYYCARAEFISTVVAPYYYALDYWGQGTLVTVSS VL: DIVMTQSPDSLAVSLGERATINCKASKKVTIFGSTSALHWYQQKPGQPPKLIYNGAKPESGVPDRFSGSGSGTDFTLTISSLQAEDVAVYYCLQNKEVPYTFGGGTKVEIK : its log10 koff reads -4.04

Noted for A9M4 (antibody, V domains shown) VH: QVQLVQSGAEVKKPGSSVKVSCKASGYTFTSYGITWVRQAPGQGLEWMGEDYPRSGNTYYNEKFKGRVTITADKSTSTAYMELSSLRSEDTAVYYCARVEFISTVVAPYYYALDYWGQGTLVTVSS VL: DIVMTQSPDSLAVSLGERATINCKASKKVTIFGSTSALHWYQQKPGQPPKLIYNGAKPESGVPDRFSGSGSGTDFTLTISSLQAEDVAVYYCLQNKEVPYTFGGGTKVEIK : its log10 koff reads -3.89

Noted for A3M5 (antibody, human IgG1, kappa, V domains shown, Full length chains) VH: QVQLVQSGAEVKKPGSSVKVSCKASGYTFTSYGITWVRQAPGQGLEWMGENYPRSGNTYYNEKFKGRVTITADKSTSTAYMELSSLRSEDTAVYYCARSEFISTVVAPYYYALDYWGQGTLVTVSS VL: DIVMTQSPDSLAVSLGERATINCKASKKVTIFGSISALHWYQQKPGQPPKLIYDGAKLESGVPDRFSGSGSGTDFTLTISSLQAEDVAVYYCLQNKEVPYTFGGGTKVEIKR : its log10 koff reads -2.92

Noted for A11.5M4 (antibody, V domains shown) VH: QVQLVQSGAEVKKPGSSVKVSCKASGYTFASYGITWVRQAPGQGLEWMGENYPRSGNTYYNEKFKGRVTITADKSTSTAYMELSSLRSEDTAVYYCARAEFISTVVAPYYYALDYWGQGTLVTVSS VL: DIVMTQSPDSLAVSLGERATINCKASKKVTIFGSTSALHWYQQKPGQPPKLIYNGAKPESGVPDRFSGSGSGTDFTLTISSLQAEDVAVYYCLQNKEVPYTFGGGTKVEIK : its log10 koff reads -4.02

Note: attention shifts to another entry.
Noted for A12.5M4 (antibody, V domains shown) VH: QVQLVQSGAEVKKPGSSVKVSCKASGYTFASYGITWVRQAPGQGLEWMGENYPRSGNTYYNEKFKGRVTITADKSTSTAYMELSSLRSEDTAVYYCARVEFISTVVAPYYYALDYWGQGTLVTVSS VL: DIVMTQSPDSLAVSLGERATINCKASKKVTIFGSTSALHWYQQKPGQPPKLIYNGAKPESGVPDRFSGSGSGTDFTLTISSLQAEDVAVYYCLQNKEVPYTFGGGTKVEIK : its log10 koff reads -3.82
